The compounds listed here are annotated with their pIC50.
Molecular target: GABA-A receptor; anion channel
Experiment: Inhibition of Gamma-aminobutyric acid receptor
pIC50: −log10 of the molar value.

{"SMILES REPRESENTATION": "COc1cc(C(=O)NS(=O)(=O)c2ccccc2C)ccc1Cc1cn(C)c2ccc(NC(=O)OC3CCCC3)cc12", "TGT": "GABA-A receptor; anion channel", "pIC50": "< 5.00"}

Supply recorded pIC50 for Cc1nc2cnccc2n1-c1ccc(OCc2cccc(/C=C/c3nc4cc(F)ccc4s3)c2)cc1 here. < 5.00

Supply recorded pIC50 for Cc1nc2cnccc2n1-c1ccc(OCc2cccc(/C=C/c3ccc4ccc(Cl)cc4n3)c2)cc1 here. < 5.00
